- protocol: in vitro
- Assay type: in vitro ADME
- run_conditions: mouse, plasma
reported_property: remaining at 24 h, 1200 ng/mL
Please don't drop the unit; write it after the number.

Record Oc1cc(O)cc(/C=C/c2c(O)cccc2O)c1 [Gnetol, trans-2,3′,5′,6-tetrahydroxystilbene] . Reported remaining at 24 h, 1200 ng/mL: 103%

---

- protocol: in vitro
- Type: in vitro ADME
- run_conditions: mouse, plasma
reported_property: remaining at 6 h, 1200 ng/mL (%)
Give the value, in units of %, as a plain number.

According to the records, this compound Oc1cc(O)cc(/C=C/c2c(O)cccc2O)c1 [Gnetol, trans-2,3′,5′,6-tetrahydroxystilbene] displays remaining at 6 h, 1200 ng/mL of 106

---

- protocol: Stability of stock solutions (1 mg/mL in DMSO)
- Format: physicochemical
- run_conditions: stock solution in DMSO; stock solution 1.00 mg/mL, stored at −20 °C for 7 days, n = 6; read-out: Remaining (%, Mean ± SD)
reported_property: remaining at 168 h, 1 mg/mL (%)
Reply with just the number (in %).

remaining at 168 h, 1 mg/mL reported for this molecule Oc1cc(O)cc(/C=C/[13c]2[13cH][13cH][13c](O)[13cH][13cH]2)c1 [Resveratrol-^13C6, trans-3,5,4′-trihydroxystilbene-^13C6, reference compound] : 100

---

- protocol: in vitro
- Type: in vitro ADME
- run_conditions: mouse, plasma
- Protocol: Stability was assessed under a range of storage and handling conditions. Stock solutions of gnetol and the IS were evaluated after storage on ice (0–4 °C) and at −20 °C. […] Because stability is difficult to determine directly in intact tissues, only short-term stability in liver homogenate (on ice for 6 h) was assessed; for processed tissue extracts, post-preparative stability was likewise evaluated using liver homogenate as a representative matrix. […]
reported_property: remaining at 15 ng/mL (%)
Answer format: numeric, % implied, no suffix.

Documented remaining at 15 ng/mL of Oc1cc(O)cc(/C=C/c2c(O)cccc2O)c1 [Gnetol, trans-2,3′,5′,6-tetrahydroxystilbene] : 103

---

- protocol: in vitro
- Type: in vitro ADME
- run_conditions: mouse, tissue homogenate
reported_property: remaining at 6 h, 1200 ng/mL (%)
Field format: number, assumed %, no unit text.

remaining at 6 h, 1200 ng/mL for Oc1cc(O)cc(/C=C/c2c(O)cccc2O)c1 [Gnetol, trans-2,3′,5′,6-tetrahydroxystilbene] is 110

---

- protocol: in vitro
- Type: in vitro ADME
- run_conditions: mouse, plasma
reported_property: remaining at 1200 ng/mL (%)
I only need the number, in %, no unit after it.

Given item Oc1cc(O)cc(/C=C/c2c(O)cccc2O)c1 [Gnetol, trans-2,3′,5′,6-tetrahydroxystilbene] , the value recorded as its remaining at 1200 ng/mL is 112

---

- protocol: Stability of stock solutions (1 mg/mL in DMSO)
- Assay type: physicochemical
- run_conditions: stock solution in DMSO; stock solution 1.00 mg/mL, stored at ice-cold temperature for 24 h, n = 6; read-out: Remaining (%, Mean ± SD)
reported_property: remaining at 24 h, 1 mg/mL
Field note: include the unit after the figure.

# remaining at 24 h, 1 mg/mL of Oc1cc(O)cc(/C=C/[13c]2[13cH][13cH][13c](O)[13cH][13cH]2)c1 [Resveratrol-^13C6, trans-3,5,4′-trihydroxystilbene-^13C6, reference compound] = 98.2%

---

- protocol: Stability of stock solutions (1 mg/mL in DMSO)
- Assay type: physicochemical
reported_property: remaining at 24 h, 1 mg/mL (%)
State the answer as a number, implicitly in %.

Entry under test: Oc1cc(O)cc(/C=C/c2c(O)cccc2O)c1 [Gnetol, trans-2,3′,5′,6-tetrahydroxystilbene] . Its remaining at 24 h, 1 mg/mL was 101

---

- protocol: in vitro
- Assay type: in vitro ADME
- run_conditions: mouse, plasma
reported_property: remaining at 24 h, 15 ng/mL (%)
Enter your answer as a number in %; do not include the unit.

Lab note: Oc1cc(O)cc(/C=C/c2c(O)cccc2O)c1 [Gnetol, trans-2,3′,5′,6-tetrahydroxystilbene] gave remaining at 24 h, 15 ng/mL of 94

---

- protocol: in vitro
- Assay type: in vitro ADME
- run_conditions: mouse, plasma
- Description: Stability was assessed under a range of storage and handling conditions. Stock solutions of gnetol and the IS were evaluated after storage on ice (0–4 °C) and at −20 °C. […] Because stability is difficult to determine directly in intact tissues, only short-term stability in liver homogenate (on ice for 6 h) was assessed; for processed tissue extracts, post-preparative stability was likewise evaluated using liver homogenate as a representative matrix. […]
reported_property: remaining at 168 h, 15 ng/mL
Respond with the figure and its unit, in that order.

The recorded remaining at 168 h, 15 ng/mL for entry Oc1cc(O)cc(/C=C/c2c(O)cccc2O)c1 [Gnetol, trans-2,3′,5′,6-tetrahydroxystilbene] equals 97.2%

---

- protocol: in vitro
- Type: in vitro ADME
- run_conditions: mouse, tissue homogenate
- Procedure: Stability was assessed under a range of storage and handling conditions. Stock solutions of gnetol and the IS were evaluated after storage on ice (0–4 °C) and at −20 °C. […] Because stability is difficult to determine directly in intact tissues, only short-term stability in liver homogenate (on ice for 6 h) was assessed; for processed tissue extracts, post-preparative stability was likewise evaluated using liver homogenate as a representative matrix. […]
reported_property: remaining at 24 h, 15 ng/mL (%)
Return type: number; implicit unit %.

// recorded remaining at 24 h, 15 ng/mL for Oc1cc(O)cc(/C=C/c2c(O)cccc2O)c1 [Gnetol, trans-2,3′,5′,6-tetrahydroxystilbene] : 104

---

- protocol: in vitro
- Type: in vitro ADME
- run_conditions: mouse, plasma
reported_property: remaining at 168 h, 1200 ng/mL
Lab note: write values as number then unit, every time.

According to the records, this compound Oc1cc(O)cc(/C=C/c2c(O)cccc2O)c1 [Gnetol, trans-2,3′,5′,6-tetrahydroxystilbene] displays remaining at 168 h, 1200 ng/mL of 112%

Data provenance is paper PMC12610539.
